# test-name: growth suppression of PTEN-deleted HCT116, pilot screen, cell-based, HCT116 clonal line, CellTiter-Glo (AID 824);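 further: 0% = 20 µM Hyamine control and 100% = vehicle cell control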
# assay-conditions: 60 h, at 10 µM, active compounds read low
Results filed as inconclusive are left out. Activity calls are given as the source filed them.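 How the source made its calls: active means viability at or below 27.92% in each of two runs, the all-compound median minus 4 SD; inconclusive means no clear call, values can overlap the other calls; inactive means the rest.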
Assignment: determine reported viability for the given molecules.

Item `O=C(NCCCN1CCCC1)c1ccc(CS(=O)(=O)c2ccc(Br)cc2)o1` has what recorded viability?
96.5% (inactive)

Need viability, item `COC(=O)c1ccc(NC(=O)Cn2nc(SC)n(N)c2=S)cc1`
99.3% (inactive)

I would be grateful if you could share the reported viability for `Cc1cc(Nc2cc(F)ccc2C)n2nc(C)nc2n1` .
95% (inactive)

Please look up its viability: `CCCc1ccc(Oc2cn[nH]c2-c2ccc(O)cc2O)cc1`
78.7% (inactive)

Value lookup for viability; key = CCCCC(CC)CNC(=O)CCS(=O)(=O)c1cccc2nsnc12 (stereo unspecified)
91.7% (inactive)

I would be grateful if you could share the reported viability for `O=C(Oc1ccccc1)N1CCN(c2ccc(F)cc2)CC1` .
85.5% (inactive)

Please look up its viability: `O=C(Nc1ccccc1)c1ccccc1O`
83.2% (inactive)

Quick one: viability of COCCNC(=O)CS(=O)Cc1nc(-c2ccccc2C)oc1C (stereo unspecified) ?
98% (inactive)

// returns reported viability for input `COc1ccc(NC(=O)NCCCN2CCc3ccccc3C2)cc1`
98.2% (inactive)

So what does the record say about viability for `CCS(=O)(=O)N1CCN(Cc2nc3ccccc3c(=O)[nH]2)CC1` ?
91.8% (inactive)

Which viability reading was recorded for the molecule `Cc1csc2nc(CNS(=O)(=O)c3ccc(-c4ccccc4)cc3)cn12` ?
93.7% (inactive)

Dear colleague, I am looking for the recorded viability of the following molecule: CCC(C)NC(=O)CNC(=O)Cn1c(C)cc2ccccc2c1=O (stereo unspecified)
94.2% (inactive)

Reported viability for `Brc1ccc(-c2nnc(-c3ccco3)o2)cc1` : what is it?
93.9% (inactive)

Need viability of `CCOC(=O)N1CCC(NC(=O)c2cnc3n(c2=O)CCS3)CC1` , thanks.
100% (inactive)

Data request, read-out viability, for COC(=O)C1C(C(C)C)N(c2ccccc2)OC1(C)O (stereo unspecified)
96.9% (inactive)

Consider the molecule `CCOC(=O)c1sc(NC(=O)C2CC2)cc1C` and give its measured viability.
89.4% (inactive)

For the molecule `Cn1cc(S(=O)(=O)CC(=O)Nc2ccc3c(c2)OCO3)c2ccccc21` , what viability is on record?
92.1% (inactive)

Which viability is listed for `CCSc1nc2c(cnn2-c2ccc(C)c(C)c2)c(=O)[nH]1` ?
94.2% (inactive)

Field request: viability | item: `CC1CCN(CCCn2c(=S)[nH]c3ccccc3c2=O)CC1`
93.7% (inactive)

Name the reported viability value associated with the molecule `COc1ccc(C)cc1S(=O)(=O)NC1CCCCC1`
101% (inactive)

Consider the molecule CC1CCCN(c2nc3c(c(=O)[nH]c(=O)n3C)n2CCSc2nc3ccccc3o2)C1 (stereo unspecified) and give its measured viability.
98.5% (inactive)

I am curious: what viability value has been reported for COc1ccc(N2C(=O)CCC(C(=O)NCc3ccccn3)C2c2ccc(OC)c(OC)c2)cc1 (stereo unspecified) ?
100% (inactive)

Record request: viability value, item `CCCc1c(C(=O)OCC)[nH]c2c1C(=O)CCC2`
95.3% (inactive)

Which viability value is on record for CC(=O)N=C1SC2CS(=O)(=O)CC2N1c1c(Cl)cccc1Cl (stereo unspecified) ?
94.2% (inactive)

So what's the measured viability for this one? `CCOC(=O)CNC(=O)c1cn(CC(C)C)c(=O)c2cc(OC)c(OC)cc12`
101% (inactive)

Name the reported viability value associated with the molecule CC(C)CCNC(=O)c1ccc2c(c1)N(Cc1ccccc1)C(=O)CS2=O (stereo unspecified)
94% (inactive)

I have this molecule here, `COC(=O)c1nc(NC(=O)C(C)(C)C)n[nH]1` , and I need its recorded viability.
89.8% (inactive)

Please report the recorded viability for `Cn1c(=O)c2c(nc(N3CCCCCC3)n2CCSc2nc3ccccc3o2)n(C)c1=O` .
83% (inactive)

Consider the molecule `CCC(=O)N1CCc2cc(Br)cc(S(=O)(=O)N3CCN(C(=O)c4ccco4)CC3)c21` and give its measured viability.
95.4% (inactive)

Given `Cc1ccc(-c2nc(CSCC(=O)N3CCN(c4ccccn4)CC3)c(C)o2)cc1` , state its recorded viability.
44.5% (inactive)

Endpoint output: viability of C=CCn1c(NC(C)c2cc(Cl)ccc2O)nc2ccccc21 (stereo unspecified) . Value?
65.1% (inactive)

Using the record for `CCCCCSc1nc2c(c(=O)[nH]c(=O)n2C)n1C` , report its viability.
79.6% (inactive)

Give the measured viability of `CN(C)S(=O)(=O)c1ccc2c(c1)c(=O)c(C(=O)N1CCOCC1)cn2C` .
89.4% (inactive)

Suppose we examine the molecule `COc1ccc(S(=O)(=O)N2CCN(CCO)CC2)cc1-c1nnc2c3ccccc3c(C)nn12` ; what viability value has been reported?
101% (inactive)

What does the data say about its viability? Entry: `Cc1cc(C)cc(-n2cc3c(=O)n(C)c(=O)n(C)c3c2)c1`
103% (inactive)

Please look up its viability: `CCCNC(=O)N1CCN(c2nc(C(C)C)c3c(c2C#N)CC(C)(C)OC3)CC1`
61.5% (inactive)

Return reported viability; argument: COC(=O)CSC1=C(C#N)C(c2ccc(C(C)C)cc2)CC(=O)N1 (stereo unspecified)
89.3% (inactive)

# input molecule: CC(NS(=O)(=O)c1ccc(Br)cc1)C(c1cccs1)N1CCN(C)CC1 (stereo unspecified) ; wanted: its viability
84.2% (inactive)

May I ask what viability has been recorded for CC(=O)NC(CCS(C)(=O)=O)C(=O)Nc1ccc(Cl)c(Cl)c1 (stereo unspecified) ?
89.6% (inactive)

I'd like to know its viability. The molecule in question is `CCOC(=O)C1=C(C)NC(C)=C(C(=O)OCC)C1C(=O)O`
90% (inactive)

Look up viability: CC1CCc2nn(CC(=O)NCCCN3CCCCC3)cc2C1 (stereo unspecified)
96.7% (inactive)

Entry CCn1c(SCC(=O)Nc2cccc(F)c2)nc2c(c1=O)SC(C)C2 (stereo unspecified) has what viability?
86.8% (inactive)

What measured viability goes with `CCCS(=O)(=O)n1nc(-c2ccc(OC)cc2OC)cc1N` ?
102% (inactive)

Would you mind telling me what viability value was observed for `CCOC(=O)c1cccc(NC(=O)CCS(=O)(=O)c2cccc3nsnc23)c1` ?
97% (inactive)

Which viability reading was recorded for the molecule `COc1ccc(-c2cn3c(C)c(C(=O)Nc4ccncc4)sc3n2)cc1` ?
90.1% (inactive)

Which viability value is on record for O=C(NC1CCCCC1)C(c1ccccc1)N1CCCC1 (stereo unspecified) ?
97.7% (inactive)
